Provenance of the data: patent US6596718B1

# tested.target: human adenosine A1 receptor (Homo sapiens, UniProt P30542)
# Construct: expressed in transfected cells; host or cells: CHO cells, Semliki Forest virus expression system; membrane preparation
# Sequence (P30542 whole entry): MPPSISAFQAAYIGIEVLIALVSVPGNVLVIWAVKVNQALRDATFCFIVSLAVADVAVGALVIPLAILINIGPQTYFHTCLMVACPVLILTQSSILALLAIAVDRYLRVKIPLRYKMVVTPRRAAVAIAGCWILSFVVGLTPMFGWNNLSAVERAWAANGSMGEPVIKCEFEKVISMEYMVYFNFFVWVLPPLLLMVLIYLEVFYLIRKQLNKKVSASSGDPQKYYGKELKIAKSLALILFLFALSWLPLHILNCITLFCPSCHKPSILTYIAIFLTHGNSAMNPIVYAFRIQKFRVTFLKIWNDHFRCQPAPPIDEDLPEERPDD
# assay.protocol: [3H]-DPCPX binding assay, human adenosine A1 receptor (SPA, CHO cell membranes)
# test.conditions: recombinant human A1 in CHO membranes; [3H]-DPCPX 0.6 nM; Ki by Cheng-Prussoff; read-out: hA1 (pKi) (converted)
parameter: Ki (µM)
Lab book: enter the figure in µM, no units written.

Examples with their reported Ki follow.
molecule	measured.number
COc1ccc(N2CCOCC2)c2sc(C(=O)NCCc3ccccc3)nc12	1.26
COc1cccc(CCNC(=O)c2nc3c(OC)ccc(N4CCOCC4)c3s2)c1	1.26

Ask | Notebook entry, human adenosine A1 receptor (Homo sapiens, UniProt P30542) assay: Ki of COc1ccc(N2CCOCC2)c2sc(C(=O)Nc3cccnc3)nc12 = ?
Reply | 3.98

Ask | Notebook entry, human adenosine A1 receptor (Homo sapiens, UniProt P30542) assay: Ki of COc1ccc(N2CCOCC2)c2sc(C(=O)NCCc3cccc(C)c3)nc12 = ?
Reply | 1.26

Ask | Notebook entry, human adenosine A1 receptor (Homo sapiens, UniProt P30542) assay: Ki of COc1ccc(N2CCOCC2)c2sc(C(=O)NC(C)Cc3cccs3)nc12 (stereo not shown) = ?
Reply | 0.2

Ask | Notebook entry, human adenosine A1 receptor (Homo sapiens, UniProt P30542) assay: Ki of COc1ccc(N2CCOCC2)c2sc(C(=O)NCCc3ccc(Cl)cc3)nc12 = ?
Reply | 2

Ask | Notebook entry, human adenosine A1 receptor (Homo sapiens, UniProt P30542) assay: Ki of COc1ccc(N2CCOCC2)c2sc(C(=O)NC(C)c3nc(C)cs3)nc12 (stereo not shown) = ?
Reply | 0.501

Ask | Notebook entry, human adenosine A1 receptor (Homo sapiens, UniProt P30542) assay: Ki of COc1ccc(N2CCOCC2)c2sc(C(=O)NCC(=O)c3sccc3Cl)nc12 = ?
Reply | 1.58

Ask | Notebook entry, human adenosine A1 receptor (Homo sapiens, UniProt P30542) assay: Ki of COc1ccccc1CCNC(=O)c1nc2c(OC)ccc(N3CCOCC3)c2s1 = ?
Reply | 1.58

Ask | Notebook entry, human adenosine A1 receptor (Homo sapiens, UniProt P30542) assay: Ki of COc1ccc(N2CCOCC2)c2sc(C(=O)NCCc3cccs3)nc12 = ?
Reply | 1.26
